Where these numbers come from: patent US10022374B2

tested on: HT-29 cells; assay: Inhibition of cell proliferation (MTS), HT-29 cells; assay type: cell-based; settings: Homo sapiens, HT-29, 72 h, HT-29 cells, 5000 cells/well, 72 h, MTS, absorbance 490 nm; read-out: HT29 IC50
MEASURE: pIC50
// returns pIC50 (minus log10 of molar concentration), number only

Worked examples follow.
[[record]]
molecule = "CC(C)C(=O)Nc1cccc(-c2nn(C3CC3)c(=O)c3c(Nc4ccc(I)cc4F)c(F)c(=O)n(C)c23)c1"
target_under_test = "HT-29 cells"
value = 7.38

[[record]]
molecule = "C=CCn1nc(-c2cccc(NC(=O)CC)c2)c2c(c(Nc3ccc(I)cc3F)c(F)c(=O)n2C)c1=O"
target_under_test = "HT-29 cells"
value = 6.98

[[record]]
molecule = "Cn1c(=O)c(F)c(Nc2ccc(I)cc2F)c2c(=O)n(C3CC3)nc(-c3cccc(N4CCCS4(=O)=O)c3)c21"
target_under_test = "HT-29 cells"
value = 7.73

[[record]]
molecule = "CC(C)S(=O)(=O)Nc1cccc(-c2nn(CC(O)CO)c(=O)c3c(Nc4ccc(I)cc4F)c(F)c(=O)n(C)c23)c1 (stereo not shown)"
target_under_test = "HT-29 cells"
value = 7.63


**Query** Requested field: pIC50. Item: "Cn1nc(-c2cccc(N3CCCS3(=O)=O)c2)c2c(c(Nc3ccc(I)cc3F)c(F)c(=O)n2C)c1=O"
**Result** 7.85
